molecular target: FGFR3 (UniProt P22607); assay: phosphorylation enrichment, bacterial display (enrichment ratio); higher = better substrate or ligand; peptides without Tyr show the background;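 further: 11-residue human phosphosite peptides and single-mutation variants displayed on the E. coli surface, counted by deep sequencing, each peptide's frequency after selection divided by its frequency in the unselected input library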;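 further: frequency after pTyr selection over input frequency; kinase dosed for 20-30% of maximal phosphorylation in three min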
Sequence (P22607 whole entry, looked up): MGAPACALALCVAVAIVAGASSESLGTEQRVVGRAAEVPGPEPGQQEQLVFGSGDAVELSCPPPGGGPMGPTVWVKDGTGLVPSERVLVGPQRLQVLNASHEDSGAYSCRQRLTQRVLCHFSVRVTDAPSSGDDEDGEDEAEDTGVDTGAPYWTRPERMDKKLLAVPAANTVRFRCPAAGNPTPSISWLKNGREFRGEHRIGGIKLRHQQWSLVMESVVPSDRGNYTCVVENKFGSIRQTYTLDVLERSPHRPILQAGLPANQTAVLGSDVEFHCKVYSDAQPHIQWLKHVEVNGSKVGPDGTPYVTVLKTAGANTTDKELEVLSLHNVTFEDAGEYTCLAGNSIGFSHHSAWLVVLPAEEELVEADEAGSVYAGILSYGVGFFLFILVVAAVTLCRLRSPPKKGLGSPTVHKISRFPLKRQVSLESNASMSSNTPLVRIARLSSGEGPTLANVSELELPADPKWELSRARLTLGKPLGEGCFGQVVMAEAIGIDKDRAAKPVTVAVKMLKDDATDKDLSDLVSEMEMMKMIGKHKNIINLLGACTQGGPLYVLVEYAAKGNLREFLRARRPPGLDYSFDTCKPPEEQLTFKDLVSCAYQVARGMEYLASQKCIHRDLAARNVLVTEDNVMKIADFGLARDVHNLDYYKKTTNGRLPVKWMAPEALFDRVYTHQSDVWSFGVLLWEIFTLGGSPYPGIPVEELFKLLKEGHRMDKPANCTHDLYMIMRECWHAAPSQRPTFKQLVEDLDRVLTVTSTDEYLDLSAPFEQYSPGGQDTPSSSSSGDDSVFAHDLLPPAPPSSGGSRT
# Lookup of reported phosphorylation enrichment keyed by entry
Give the figure only, with no unit attached.

// known answers, use as guide
                    chain_sequence  value_observed
0    EICTQYEAMAS [GFAP_Y242_R239C]           0.683
1    VFGVSYDEYRY [CFTR_Y512_I507V]           0.604
2  FLAVGYHKPFI [IDS_Y225_H229Y_YF]           0.647
3   PEVSGYCHFAD [TG_Y234_C237Y_YF]           0.773

Now look at this one.
Q. What value of measured phosphorylation enrichment is listed for RRMLQYLTVND [PPFIBP2_Y663] ?
A. 0.632
